TARGET ENTITY: human URAT1 (Homo sapiens)
Construct: Human URAT1 full length cDNA was subcloned to expression vector pcDNA3.1
Sequence (Q96S37 1-553): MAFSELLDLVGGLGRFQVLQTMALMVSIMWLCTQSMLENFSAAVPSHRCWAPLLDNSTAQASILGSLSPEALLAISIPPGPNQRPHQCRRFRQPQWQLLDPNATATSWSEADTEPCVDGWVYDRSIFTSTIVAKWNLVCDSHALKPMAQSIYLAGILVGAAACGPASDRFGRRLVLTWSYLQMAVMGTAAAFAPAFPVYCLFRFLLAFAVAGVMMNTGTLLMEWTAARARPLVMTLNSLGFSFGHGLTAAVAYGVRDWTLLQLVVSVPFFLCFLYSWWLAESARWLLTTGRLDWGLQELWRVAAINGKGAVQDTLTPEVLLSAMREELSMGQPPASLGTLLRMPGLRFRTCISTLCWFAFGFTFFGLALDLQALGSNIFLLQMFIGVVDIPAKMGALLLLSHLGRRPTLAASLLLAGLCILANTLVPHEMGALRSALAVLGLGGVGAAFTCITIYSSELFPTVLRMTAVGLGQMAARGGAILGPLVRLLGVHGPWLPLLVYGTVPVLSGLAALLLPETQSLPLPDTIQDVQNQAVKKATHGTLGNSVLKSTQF
PROCEDURE SUMMARY: Uric acid transport inhibitory test using human URAT1-expressing cells
RUN PARAMETERS: human URAT1 expressing HEK293 cells, uptake of 14C-labeled uric acid for 5 min, room temperature; read-out: hURAT1 (IC50, concentration necessary for inhibiting the uric acid transport rate by 50%)
Method: Reference Experimental Example 1 Uric Acid Transport Inhibitory Test Using Human Urat1-Expressing Cells […] After the medium was removed by aspiration from each well, the cells were washed once with Hank's Balanced Salt Solution (HBSS) and preincubated with HBSS ([…]/well) for 5 min. […] The cells were lysed by stirring and the radioactivity of each well was measured in a liquid scintillation counter (TOP COUNT, Packard). […]
pIC50: −log10 of the molar value.
Documented pIC50 across a set of compounds

Respond only with pIC50 recorded for O=C(c1cc(F)c(O)c(F)c1)N1CCOc2ccccc21
6.00 to 7.00

Respond only with pIC50 recorded for CC(=O)N1CCN(C(=O)c2cc(Cl)c(O)c(Cl)c2)c2ccccc21
6.00 to 7.00

Respond only with pIC50 recorded for CCOC(=O)COc1c(Cl)cc(C(=O)N2CCOc3ccccc32)cc1Cl
5.52 to 6.00

Respond only with pIC50 recorded for O=C(c1cc(Cl)c(O)c(Cl)c1)N1CCc2ccccc21
6.00 to 7.00

Respond only with pIC50 recorded for O=C(c1cnc(O)c(Cl)c1)N1CCOc2ccccc21
5.52 to 6.00

Respond only with pIC50 recorded for Cc1ccc2c(c1)N(C(=O)c1cc(Cl)c(O)c(Cl)c1)CCO2
> 7.00

Respond only with pIC50 recorded for O=C(c1cc(Cl)c(O)c(Cl)c1)N1CCCOc2ccccc21 [Example 94]
6.00 to 7.00

Respond only with pIC50 recorded for O=C(c1cc(Cl)c(O)c(Cl)c1)N1CCOc2ccccc21
> 7.00

Respond only with pIC50 recorded for CC(C)(C)c1ccc2c(c1)N(C(=O)c1cc(Cl)c(O)c(Cl)c1)CCO2
5.52 to 6.00

Respond only with pIC50 recorded for O=C(c1cc(Cl)c(O)c(Cl)c1)N1CCOc2ccc(CO)cc21
6.00 to 7.00
